FYI, the data here is from patent US20200223889A1.

tested.system: T1, human melanocortin 4 receptor (human, UniProt P32245 1-332)
T1 construct: whole, on cells; cAMP assay on whole BHK cells; also called MC4R; human MC4 receptor
T1 sequence (P32245 whole entry): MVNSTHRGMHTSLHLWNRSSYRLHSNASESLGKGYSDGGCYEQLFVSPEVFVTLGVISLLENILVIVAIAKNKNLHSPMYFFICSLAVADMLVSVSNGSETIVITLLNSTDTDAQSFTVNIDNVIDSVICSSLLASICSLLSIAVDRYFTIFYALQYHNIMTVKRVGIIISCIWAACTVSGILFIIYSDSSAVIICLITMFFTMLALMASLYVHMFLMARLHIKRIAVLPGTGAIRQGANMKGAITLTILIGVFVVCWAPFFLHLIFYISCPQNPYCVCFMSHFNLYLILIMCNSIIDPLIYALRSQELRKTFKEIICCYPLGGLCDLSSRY
method.description: competition with 125-NDP-α-MSH, BHK human MC4R membranes
Positions of bridges follow the written chain, without caps; N, C: chain ends. Non-standard residues stand in square brackets, D forms with d. Lys(Me2) = CN(C)CCCC[C@H](N)C(=O)O; Ser(ΨH,HPro) = O=C(O)[C@@H]1COCN1; Cit = NC(=O)NCCC[C@H](N)C(=O)O; Pen = CC(C)(S)[C@H](N)C(=O)O; Thz = O=C(O)[C@@H]1CSCN1
endpoint.name: Ki (nM)
Hi! Could you send only the number? It should be in nM, unit omitted.

Examples with answers:
| binder | endpoint.name | quantity.unit | reported |
| --- | --- | --- | --- |
| cyclo(C[Ser(ΨH,HPro)]H[dF]HWCAKKKW) (disulfide 1-7; SMILES C[C@@H]1NC(=O)[C@@H]2CSSC[C@H](NC(=O)[C@H](Cc3c[nH]c4ccccc34)NC(=O)[C@H](CCCCN)NC(=O)[C@H](CCCCN)NC(=O)[C@H](CCCCN)NC1=O)C(=O)N1COC[C@H]1C(=O)N[C@@H](Cc1c[nH]cn1)C(=O)N[C@H](Cc1ccccc1)C(=O)N[C@@H](Cc1c[nH]cn1)C(=O)N[C@@H](Cc1c[nH]c3ccccc13)C(=O)N2, also called c[c[Cys-OXA-His-D-Phe-His-Trp-Cys]-Ala-Lys-Lys-Lys-Trp]) [Chem. 103] | Ki | nM | 0.06 |
| cyclo(AAH[dF]RWAAH[dF]RW) (SMILES C[C@@H]1NC(=O)[C@H](C)NC(=O)[C@H](Cc2c[nH]c3ccccc23)NC(=O)[C@H](CCCNC(=N)N)NC(=O)[C@@H](Cc2ccccc2)NC(=O)[C@H](Cc2c[nH]cn2)NC(=O)[C@H](C)NC(=O)[C@H](C)NC(=O)[C@H](Cc2c[nH]c3ccccc23)NC(=O)[C@H](CCCNC(=N)N)NC(=O)[C@@H](Cc2ccccc2)NC(=O)[C@H](Cc2c[nH]cn2)NC1=O, also called c[Ala-Ala-His-D-Phe-Arg-Trp-Ala-Ala-His-D-Phe-Arg-Trp]) [Chem. 7] | Ki | nM | 0.47 |
| cyclo(C[Thz]H[dF]HWC[Thz]H[dF]HW) (disulfide 1-7; SMILES O=C1N[C@H]2CSSC[C@H](NC(=O)[C@H](Cc3c[nH]c4ccccc34)NC(=O)[C@H](Cc3c[nH]cn3)NC(=O)[C@@H](Cc3ccccc3)NC(=O)[C@H](Cc3c[nH]cn3)NC(=O)[C@@H]3CSCN3C2=O)C(=O)N2CSC[C@H]2C(=O)N[C@@H](Cc2c[nH]cn2)C(=O)N[C@H](Cc2ccccc2)C(=O)N[C@@H](Cc2c[nH]cn2)C(=O)N[C@H]1Cc1c[nH]c2ccccc12, also called c[c[Cys-THAZ-His-D-Phe-His-Trp-Cys]-THAZ-His-D-Phe-His-Trp]) [Chem. 91] | Ki | nM | 0.51 |
| cyclo(CPH[dF]HWCAKKKR) (disulfide 1-7; SMILES C[C@@H]1NC(=O)[C@@H]2CSSC[C@H](NC(=O)[C@H](CCCNC(=N)N)NC(=O)[C@H](CCCCN)NC(=O)[C@H](CCCCN)NC(=O)[C@H](CCCCN)NC1=O)C(=O)N1CCC[C@H]1C(=O)N[C@@H](Cc1c[nH]cn1)C(=O)N[C@H](Cc1ccccc1)C(=O)N[C@@H](Cc1c[nH]cn1)C(=O)N[C@@H](Cc1c[nH]c3ccccc13)C(=O)N2, also called c[c[Cys-Pro-His-D-Phe-His-Trp-Cys]-Ala-Lys-Lys-Lys-Arg]) [Chem. 71] | Ki | nM | 0.05 |
| cyclo(CRH[dF][Cit]WCRH[dF][Cit]W) (disulfide 1-7; SMILES N=C(N)NCCC[C@@H]1NC(=O)[C@@H]2CSSC[C@H](NC(=O)[C@H](Cc3c[nH]c4ccccc34)NC(=O)[C@H](CCCNC(N)=O)NC(=O)[C@@H](Cc3ccccc3)NC(=O)[C@H](Cc3c[nH]cn3)NC1=O)C(=O)N[C@@H](CCCNC(=N)N)C(=O)N[C@@H](Cc1c[nH]cn1)C(=O)N[C@H](Cc1ccccc1)C(=O)N[C@@H](CCCNC(N)=O)C(=O)N[C@@H](Cc1c[nH]c3ccccc13)C(=O)N2, also called c[c[Cys-Arg-His-D-Phe-Cit-Trp-Cys]-Arg-His-D-Phe-Cit-Trp]) [Chem. 54] | Ki | nM | 0.21 |

Ki lookup needed for cyclo(CPH[dF]HW[Pen]AKKKR) (disulfide 1-7; SMILES C[C@@H]1NC(=O)[C@H]2NC(=O)[C@H](Cc3c[nH]c4ccccc34)NC(=O)[C@H](Cc3c[nH]cn3)NC(=O)[C@@H](Cc3ccccc3)NC(=O)[C@H](Cc3c[nH]cn3)NC(=O)[C@@H]3CCCN3C(=O)[C@H](CSSC2(C)C)NC(=O)[C@H](CCCNC(=N)N)NC(=O)[C@H](CCCCN)NC(=O)[C@H](CCCCN)NC(=O)[C@H](CCCCN)NC1=O, also called c[c[Cys-Pro-His-D-Phe-His-Trp-Pen]-Ala-Lys-Lys-Lys-Arg]) [Chem. 93] , thanks.
0.03

Here is the next binder: cyclo(CAH[dF]QWCAK[dK]KW) (disulfide 1-7; SMILES C[C@@H]1NC(=O)[C@@H]2CSSC[C@H](NC(=O)[C@H](Cc3c[nH]c4ccccc34)NC(=O)[C@H](CCC(N)=O)NC(=O)[C@@H](Cc3ccccc3)NC(=O)[C@H](Cc3c[nH]cn3)NC1=O)C(=O)N[C@@H](C)C(=O)N[C@@H](CCCCN)C(=O)N[C@H](CCCCN)C(=O)N[C@@H](CCCCN)C(=O)N[C@@H](Cc1c[nH]c3ccccc13)C(=O)N2, also called c[c[Cys-Ala-His-D-Phe-Gln-Trp-Cys]-Ala-Lys-D-Lys-Lys-Trp]) [Chem. 57]
0.21

// next record cyclo(C[dP]H[dF]HWCAKKKW) (disulfide 1-7, also called c[c[Cys-D-Pro-His-D-Phe-His-Trp-Cys]-Ala-Lys-Lys-Lys-Trp]) [Chem. 98]
0.6

What about this binder? cyclo(CAH[dF][Lys(Me2)]WCAH[dF][Lys(Me2)]W) (disulfide 1-7; SMILES C[C@@H]1NC(=O)[C@@H]2CSSC[C@H](NC(=O)[C@H](Cc3c[nH]c4ccccc34)NC(=O)[C@H](CCCCN(C)C)NC(=O)[C@@H](Cc3ccccc3)NC(=O)[C@H](Cc3c[nH]cn3)NC1=O)C(=O)N[C@@H](C)C(=O)N[C@@H](Cc1c[nH]cn1)C(=O)N[C@H](Cc1ccccc1)C(=O)N[C@@H](CCCCN(C)C)C(=O)N[C@@H](Cc1c[nH]c3ccccc13)C(=O)N2, also called c[c[Cys-Ala-His-D-Phe-Lys(Me)2-Trp-Cys]-Ala-His-D-Phe-Lys(Me)2-Trp]) [Chem. 18]
0.38
